# System: IDO (Homo sapiens, UniProt P14902)
# Sequence (P14902 whole entry): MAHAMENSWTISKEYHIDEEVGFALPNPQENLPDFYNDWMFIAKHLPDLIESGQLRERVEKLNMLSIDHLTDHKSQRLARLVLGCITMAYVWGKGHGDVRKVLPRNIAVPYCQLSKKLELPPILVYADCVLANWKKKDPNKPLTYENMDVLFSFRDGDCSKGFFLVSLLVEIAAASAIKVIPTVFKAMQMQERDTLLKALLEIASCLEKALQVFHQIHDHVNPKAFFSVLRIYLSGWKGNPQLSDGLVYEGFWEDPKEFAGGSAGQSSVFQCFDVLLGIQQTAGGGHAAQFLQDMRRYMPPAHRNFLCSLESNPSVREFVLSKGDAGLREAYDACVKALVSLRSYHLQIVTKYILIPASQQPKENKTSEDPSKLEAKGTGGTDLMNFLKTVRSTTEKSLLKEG
# Procedure Text: SKOV3 kynurenine cell-based assay (IDO induced by IFN-γ)
# Design: IDO expression was induced in the SKOV3 cells by the addition of 500 ng/ml IFN-γ; endogenous in cells; host or cells: SKOV3 (human ovarian adenocarcinoma), induced with IFN-γ
# Condition: SKOV3 human ovarian adenocarcinoma cells, 500 ng/ml IFN-γ, 48 hours, 500 μM L-tryptophan; read-out: SKOV3 Kynurenine cell based assay pIC50 (converted)
Measure Name: IC50

Query for IDO (Homo sapiens, UniProt P14902): what IC50 does the record show for "CS(=O)(=O)N1CCC(n2cc(-c3cc(Cl)cc4[nH]ncc34)cn2)CC1" ? 3.24 to 31.6 µM

IDO (Homo sapiens, UniProt P14902) / IC50 / "Clc1cc(C2CCOCC2)c2cn[nH]c2c1" : value? > 100 µM

Quick check: IC50 on IDO (Homo sapiens, UniProt P14902), item "CS(=O)(=O)N1CCC(c2cc(C3CCOCC3)cc3[nH]ncc23)CC1" ? 32.4 to 100 µM

IDO (Homo sapiens, UniProt P14902) / IC50 / "COCC(=O)N1CCN(c2cc(Cl)cc3[nH]ncc23)CC1" : value? 3.24 to 31.6 µM

For the record "COCCn1ncc2c(OC3CCN(S(C)(=O)=O)CC3)cc(Cl)cc21" , what value of IC50 is listed for IDO (Homo sapiens, UniProt P14902)? 32.4 to 100 µM

Look up IC50 with IDO (Homo sapiens, UniProt P14902) for this compound: "CS(=O)(=O)N1CC2(CCN(c3cc(Cl)cc4[nH]ncc34)CC2)C1" 3.24 to 31.6 µM

Missing value: IC50, IDO (Homo sapiens, UniProt P14902), entry "CC(=O)N1C2CCC1CN(c1cc(Cl)cc3[nH]ncc13)C2" . Fill in? 3.24 to 31.6 µM

Identify the measured IC50 of "Cc1nc2c(o1)CN(c1cc(Cl)cc3[nH]ncc13)CC2(C)C" for IDO (Homo sapiens, UniProt P14902). > 100 µM

Lab note: need IC50 for "CN(c1ccc(-c2cc(Cl)cc3[nH]ncc23)cc1)S(C)(=O)=O" on IDO (Homo sapiens, UniProt P14902), anyone have it? 3.24 to 31.6 µM

Observed IC50 on IDO (Homo sapiens, UniProt P14902) for "Cn1ncc2c(N3CCN(S(C)(=O)=O)C(C)(C)C3)cc(Cl)cc21" , please. 32.4 to 100 µM

More entries:
Give IDO (Homo sapiens, UniProt P14902) IC50 for CC1CN(c2cccc3[nH]ncc23)CCN1S(C)(=O)=O (stereo not drawn) 32.4 to 100 µM

Enter reported IC50 observed with IDO (Homo sapiens, UniProt P14902) for "CS(=O)(=O)N1CCC(Oc2cc(Cl)cc3c2cnn3CCO)CC1" 32.4 to 100 µM

====

# System: UniProt:P14902
# Procedure Text: hIDO biochemical coupled assay
# Condition: 45 μM L-tryptophan, 17 minutes, room temperature; read-out: hIDO biochemical assay pIC50 (converted)
Measure Name: IC50

Please tell me: IC50 of CCN1C(=O)NC2(CCN(c3cc(Cl)cc4[nH]ncc34)CC2)C1=O [Compound 315] , system UniProt:P14902? < 3.16 µM

From here, focus on the item given below.
For the record OC(c1cc(Cl)cc2[nH]ncc12)C1CCOCC1 (centres unmarked) [Compound 299] , what value of IC50 is listed for UniProt:P14902? > 100 µM

====

Consider the following compounds and their measured IC50 readings.
# System: IDO (Homo sapiens, UniProt P14902)
# Procedure Text: hIDO biochemical coupled assay
# Condition: 45 μM L-tryptophan, 17 minutes, room temperature; read-out: hIDO biochemical assay pIC50 (converted)

The cases that follow already have their IC50 on record.
Form field: reported IC50 of "CC(=O)N1CCN(c2ccc3[nH]ncc3c2)CC1" > 100 µM

Would you mind telling me what IC50 value was observed for "CC(C)S(=O)(=O)N1CCN(c2cccc3[nH]ncc23)CC1" ? > 100 µM

Report IC50 for "O=C1N[C@H]2CC[C@@H]1CN(c1cc(Br)cc3[nH]ncc13)C2" please. 3.24 to 31.6 µM

Which value of IC50 has been reported for "O=C1CC2(CCN(c3cc(Cl)cc4[nH]ncc34)CC2)CN1" in the records? 3.24 to 31.6 µM

Query: IC50; subject: "CS(=O)(=O)N1CCC2(CCN(c3cc(Cl)cc4[nH]ncc34)CC2)CC1" 32.4 to 100 µM

What does the data say about its IC50? Entry: "CN1CCN(c2cc(Cl)cc3[nH]ncc23)CC1=O" > 100 µM

Need IC50, item "Clc1cc(C2CCOCC2)c2cn[nH]c2c1" 3.24 to 31.6 µM

Alright, here's another compound for you.
Data request, read-out IC50, for "Clc1cc(N2CCN(c3ccccn3)CC2)c2cn[nH]c2c1" > 100 µM

====

Reported IC50 by item:
# System: IDO (Homo sapiens, UniProt P14902)
# Procedure Text: SKOV3 kynurenine cell-based assay (IDO induced by IFN-γ)
# Parameters: IDO expression was induced in the SKOV3 cells by the addition of 500 ng/ml IFN-γ; endogenous in cells; host or cells: SKOV3 (human ovarian adenocarcinoma), induced with IFN-γ
# Condition: SKOV3 human ovarian adenocarcinoma cells, 500 ng/ml IFN-γ, 48 hours, 500 μM L-tryptophan; read-out: SKOV3 Kynurenine cell based assay pIC50 (converted)

So what's the measured IC50 for this one? O=C1N[C@H]2CC[C@@H]1CN(c1cc(C(F)(F)F)cc3[nH]ncc13)C2 [Compound 439] > 100 µM

I'd like to know its IC50. The compound in question is CS(=O)(=O)N1CCN(c2cc(N3CCCC3)cc3[nH]ncc23)CC1 [Compound 146] > 100 µM

What does the record list as IC50 for O=C1NC(=O)C2(CCN(c3cc(Cl)cc4[nH]ncc34)CC2)N1 [Compound 137] ? < 3.16 µM

For the compound OC(c1ccccc1)c1cc(Cl)cc2[nH]ncc12 (stereo not drawn) [Compound 271] , what IC50 is on record? 32.4 to 100 µM

Tell me the measured IC50 of CC(=O)N1CCCN(c2cccc3[nH]ncc23)CC1 [Compound 58] , please. > 100 µM

Need IC50, item CCC1CN(c2cc(Cl)cc3[nH]ncc23)CCN1C(C)=O (stereo not drawn) [Compound 84] 3.24 to 31.6 µM

Query: IC50; subject: O=C(NCC1CCCCC1)c1cc(Cl)cc2[nH]ncc12 [Compound 258] 3.24 to 31.6 µM

Requested read-out: IC50. Entry: O=C(C1CC1)N1CCN(c2cc(Cl)cc3[nH]ncc23)CC1 [Compound 107] 3.24 to 31.6 µM

More entries:
What value of measured IC50 is listed for CC(=O)N1CCN(c2cc(OC(F)(F)F)cc3[nH]ncc23)CC1 [Compound 244] ? 32.4 to 100 µM

====

Documented IC50 across a set of compounds
# System: IDO (Homo sapiens)
# Procedure Text: SKOV3 kynurenine cell-based assay (IDO induced by IFN-γ)
# Design: IDO expression was induced in the SKOV3 cells by the addition of 500 ng/ml IFN-γ; endogenous in cells; host or cells: SKOV3 (human ovarian adenocarcinoma), induced with IFN-γ
# Condition: SKOV3 human ovarian adenocarcinoma cells, 500 ng/ml IFN-γ, 48 hours, 500 μM L-tryptophan; read-out: SKOV3 Kynurenine cell based assay pIC50 (converted)

Consider the reported IC50 for these compounds:
Request the reported IC50 associated with CC(O)C(=O)N1CCN(c2cc(Cl)cc3[nH]ncc23)CC1 (stereo not drawn) [Compound 136] 3.24 to 31.6 µM

Entry CN(C1CCN(c2cc(Cl)cc3[nH]ncc23)CC1(C)C)S(C)(=O)=O (stereo not drawn) [Compound 449] : reported IC50 = ? 3.24 to 31.6 µM

Proceed to the following item.
# input compound: CC(=O)N1CCN(c2cc(C#N)cc3[nH]ncc23)CC1 [Compound 323] ; wanted: its IC50 32.4 to 100 µM

====

In this section we review reported IC50 values for a set of molecules.
# System: UniProt P48775
# Sequence (P48775 whole entry): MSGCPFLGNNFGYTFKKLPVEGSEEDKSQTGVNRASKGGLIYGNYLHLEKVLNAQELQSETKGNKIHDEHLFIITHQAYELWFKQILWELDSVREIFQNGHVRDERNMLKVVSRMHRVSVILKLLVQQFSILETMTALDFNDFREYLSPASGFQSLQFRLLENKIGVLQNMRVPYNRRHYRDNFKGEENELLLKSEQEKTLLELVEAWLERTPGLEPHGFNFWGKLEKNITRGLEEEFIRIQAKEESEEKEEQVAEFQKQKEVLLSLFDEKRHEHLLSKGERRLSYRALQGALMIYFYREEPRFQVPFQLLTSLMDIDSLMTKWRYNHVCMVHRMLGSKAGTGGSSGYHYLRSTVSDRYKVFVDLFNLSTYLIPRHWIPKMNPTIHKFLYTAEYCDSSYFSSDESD
# Procedure Text: A172 kynurenine cell-based assay
# Design: This assay utilised cancer cells which expressed either TDO or IDO; endogenous in cells; host or cells: A172 (human glioblastoma)
# Condition: A172 human glioblastoma cells, 48 hours, 500 μM L-tryptophan; read-out: A172 Kynurenine cell based assay pIC50 (converted)

Here are 2 molecules together with their reported answers.
Look up IC50 for this molecule: "CC(=O)N1CCN(c2cc(Cl)cc3c(N)n[nH]c23)CC1(C)C" > 100 µM

Recorded IC50 for "NS(=O)(=O)N1CCN(c2cc(Cl)cc3[nH]ncc23)CC1" , please? < 3.16 µM

Now look at this one.
Which measured IC50 value corresponds to "C[C@H]1CN(S(C)(=O)=O)CCN1c1cc(Cl)cc2[nH]ncc12" ? < 3.16 µM
